Entries and their measured hERG current change (%, negative = inhibition) at 10uM follow.
biological target: human ether-à-go-go-related gene (hERG) potassium channel (human, UniProt Q12809); test: primary screen, population patch clamp on CHO cells stably expressing hERG; higher = less effect of the substance;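 note: peak tail current of the secondary pulse compared with the same well before compound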
Sequence (Q12809 whole entry, looked up): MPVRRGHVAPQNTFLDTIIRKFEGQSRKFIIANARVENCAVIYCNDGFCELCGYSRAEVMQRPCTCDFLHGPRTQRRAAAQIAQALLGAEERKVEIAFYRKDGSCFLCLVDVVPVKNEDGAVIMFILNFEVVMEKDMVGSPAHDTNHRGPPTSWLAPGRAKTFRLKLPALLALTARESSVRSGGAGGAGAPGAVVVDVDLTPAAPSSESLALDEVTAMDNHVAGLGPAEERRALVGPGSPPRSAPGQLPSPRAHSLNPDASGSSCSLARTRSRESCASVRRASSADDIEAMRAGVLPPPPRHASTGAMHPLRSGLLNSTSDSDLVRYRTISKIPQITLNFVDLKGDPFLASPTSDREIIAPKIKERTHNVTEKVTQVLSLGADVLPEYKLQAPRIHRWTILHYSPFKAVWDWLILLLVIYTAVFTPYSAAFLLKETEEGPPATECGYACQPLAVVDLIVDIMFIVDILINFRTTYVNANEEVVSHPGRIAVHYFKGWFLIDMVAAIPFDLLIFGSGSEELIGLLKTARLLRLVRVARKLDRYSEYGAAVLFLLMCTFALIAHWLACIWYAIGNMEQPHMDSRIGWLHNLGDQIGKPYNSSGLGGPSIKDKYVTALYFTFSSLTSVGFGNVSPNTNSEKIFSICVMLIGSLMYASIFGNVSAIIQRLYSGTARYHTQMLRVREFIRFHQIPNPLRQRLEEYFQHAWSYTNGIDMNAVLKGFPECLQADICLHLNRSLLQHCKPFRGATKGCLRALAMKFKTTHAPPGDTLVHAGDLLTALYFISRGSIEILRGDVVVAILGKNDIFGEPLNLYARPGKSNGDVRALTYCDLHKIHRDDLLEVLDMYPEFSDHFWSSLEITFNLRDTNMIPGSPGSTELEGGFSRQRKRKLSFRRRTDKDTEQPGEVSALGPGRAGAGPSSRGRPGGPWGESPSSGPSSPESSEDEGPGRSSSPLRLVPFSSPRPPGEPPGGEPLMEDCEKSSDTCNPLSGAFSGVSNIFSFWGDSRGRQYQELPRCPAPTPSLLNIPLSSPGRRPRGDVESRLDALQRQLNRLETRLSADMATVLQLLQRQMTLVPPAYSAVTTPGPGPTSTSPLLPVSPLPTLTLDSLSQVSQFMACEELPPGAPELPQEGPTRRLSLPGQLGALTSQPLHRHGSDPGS
About 14,000 (4.5%) of roughly 310,000 compounds showed an effect of 50% or more. Effects have a minus sign here. The full list was thinned out, with strong results kept by preference.
REPORTED METRIC: hERG current change (%, negative = inhibition) at 10uM (%)

compound=CC(C)Cc1ccc([C@H](C)C(=O)O)cc1 tested_on="human ether-à-go-go-related gene (hERG) potassium channel (human, UniProt Q12809)" measured_value=7.11
compound=Cc1oc(-c2cccc(Cl)c2)nc1CN1CCC(C(=O)NC2CC2)CC1 tested_on="human ether-à-go-go-related gene (hERG) potassium channel (human, UniProt Q12809)" measured_value=16.2
compound="COC1CCCN(C(=O)c2ccc(OC3CCN(S(=O)(=O)N(C)C)CC3)cc2)C1 (stereo not drawn)" tested_on="human ether-à-go-go-related gene (hERG) potassium channel (human, UniProt Q12809)" measured_value=8.14
compound="CCOC(=O)c1oc2ccccc2c1CN1CC(C)OC(C)C1 (stereo not drawn)" tested_on="human ether-à-go-go-related gene (hERG) potassium channel (human, UniProt Q12809)" measured_value=-0.576
compound=CCc1ccc(-c2nc(CN3CCC(C(=O)NCc4ccco4)CC3)c(C)o2)cc1 tested_on="human ether-à-go-go-related gene (hERG) potassium channel (human, UniProt Q12809)" measured_value=-66.3
compound=Cc1oc(-c2cccc(Cl)c2)nc1CN1CCC(C(=O)NCc2ccco2)CC1 tested_on="human ether-à-go-go-related gene (hERG) potassium channel (human, UniProt Q12809)" measured_value=-78
